target: Shaker K+ channel (Drosophila melanogaster, UniProt P08510, DEL6-46); construct: expressed in transfected cells; host or cells: Xenopus laevis oocytes injected with in vitro transcribed cRNA (cDNA clone from the Bezanilla laboratory); assay: cell-based; assay type: cell-based, D. melanogaster; conditions: Woodhull fit of IC50 vs voltage curves
Sequence (P08510 other isoform, or with tags, fused parts or gaps DEL6-46): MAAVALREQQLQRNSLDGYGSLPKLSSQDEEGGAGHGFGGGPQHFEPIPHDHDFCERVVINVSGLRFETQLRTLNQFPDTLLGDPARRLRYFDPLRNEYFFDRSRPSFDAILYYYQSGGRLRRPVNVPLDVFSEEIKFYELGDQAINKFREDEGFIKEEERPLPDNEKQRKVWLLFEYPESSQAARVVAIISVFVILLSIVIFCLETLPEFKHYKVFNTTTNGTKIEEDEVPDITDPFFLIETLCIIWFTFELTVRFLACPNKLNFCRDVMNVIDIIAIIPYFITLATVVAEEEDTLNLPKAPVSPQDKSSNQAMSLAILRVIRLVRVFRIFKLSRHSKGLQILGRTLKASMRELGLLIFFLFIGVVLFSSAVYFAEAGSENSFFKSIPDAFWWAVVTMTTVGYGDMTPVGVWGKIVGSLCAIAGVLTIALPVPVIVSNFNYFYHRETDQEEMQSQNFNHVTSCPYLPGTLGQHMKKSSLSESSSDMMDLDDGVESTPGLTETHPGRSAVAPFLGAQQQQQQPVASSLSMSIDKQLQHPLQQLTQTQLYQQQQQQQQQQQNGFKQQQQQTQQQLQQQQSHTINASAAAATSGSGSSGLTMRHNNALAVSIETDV
Record form. Attribute: δ (fractional distance through the membrane electrical field). Fill in for each entry.
# output: bare number, no unit

Please fill in: δ (fractional distance through the membrane electrical field) reported for Nc1ccncc1 [4AP, 4-aminopyridine, reference compound] = 0.41

Reported δ (fractional distance through the membrane electrical field) of `Cc1cnccc1N` : 0.43

Looking up Nc1ccncc1F [3F4AP, 3-fluoro-4-aminopyridine, reference compound] , I see its δ (fractional distance through the membrane electrical field) listed as 0.46

Looking up Nc1ccncc1C(F)(F)F [3CF34AP, 3-trifluoromethyl-4-aminopyridine] , I found its δ (fractional distance through the membrane electrical field) recorded as 0.46

Memo: `COc1cnccc1N` , reported δ (fractional distance through the membrane electrical field): 0.56

* * *

assay: pKa determination by acid titration; type: physicochemical; details: acid titration in water, Gran plot, 4 replicates
Parameter threshold = 8. Response is Yes when pKa meets or exceeds it, else No.

Is it the case that Nc1ccncc1F [3F4AP, 3-fluoro-4-aminopyridine, reference compound] has pKa reaching or exceeding 8?
No

Answer whether pKa of Nc1ccncc1 [4AP, 4-aminopyridine, reference compound] is greater than or equal to 8.
Yes

Could you verify whether the entry Nc1ccncc1C(F)(F)F [3CF34AP, 3-trifluoromethyl-4-aminopyridine] shows pKa of no less than 8?
No

Form field: pKa at least 8? Entry: `Cc1cnccc1N`
Yes

In plain terms: is recorded pKa at least 8 for `COc1cnccc1N` ?
Yes

Decide: pKa of Nc1ccnc(C(F)(F)F)c1 [2CF34AP, 2-trifluoromethyl-4-aminopyridine] >= 8?
No

* * *

target: Shaker K+ channel (Drosophila melanogaster, UniProt P08510, DEL6-46); construct: expressed in transfected cells; host or cells: Xenopus laevis oocytes injected with in vitro transcribed cRNA (cDNA clone from the Bezanilla laboratory); experiment: cell-based; format: cell-based, D. melanogaster; details: IC50, 0 mV, pH 9.1, Hill fit
measurementLabel: pIC50
The meaning of pIC50 here: minus log10 of the concentration in molar units.

The compound Cc1cnccc1N [3Me4AP, 3-methyl-4-aminopyridine] on Shaker K+ channel (Drosophila melanogaster, UniProt P08510, DEL6-46): pIC50 was 4.82

# value of pIC50, Shaker K+ channel (Drosophila melanogaster, UniProt P08510, DEL6-46), item Nc1ccncc1C(F)(F)F [3CF34AP, 3-trifluoromethyl-4-aminopyridine] = 2.66

* * *

For each record, write down the corresponding pKa.
Test: pKa determination by acid titration
Assay type: physicochemical
Conditions: water, acid titration in water, Gran plot, 4 replicates; read-out: pKa
Experimental: The pKa of each compound was measured by acid titration. […] This procedure was repeated 4 times for each compound.

The molecule Cc1cnccc1N [3Me4AP, 3-methyl-4-aminopyridine] showed pKa equal to > 9

The molecule listed as Nc1ccncc1C(F)(F)F [3CF34AP, 3-trifluoromethyl-4-aminopyridine] has a reported pKa of < 8

For reference, reported pKa for Nc1ccncc1F [3F4AP, 3-fluoro-4-aminopyridine, reference compound] stands at < 8

The reported value for Nc1ccncc1 [4AP, 4-aminopyridine, reference compound] in terms of pKa is > 9

Record COc1cnccc1N [3MeO4AP, 3-methoxy-4-aminopyridine] , field pKa: > 9

# molecule Nc1ccnc(C(F)(F)F)c1 [2CF34AP, 2-trifluoromethyl-4-aminopyridine] ; its pKa = < 8
